# measurement target: T1, Biotinylated NMDAR2B immunogen peptide (human, also: biotinylated, site not given here)
# T1 construct: also called biotinylated peptide
# T1 peptide: YKDAHEKDDF-NH2
# assay name: ELISA, Fab captured on anti-human IgG, streptavidin-HRP detection
Ends that are not written are not given here.
property label: binding result

Fab9 (Fab, V domains shown, also called Ab9 (IgG form with the same VH and VL)) VH: EVQLVESGGGLVQPGGSLRLSCAASGFNLSYSSMHWVRQAPGKGLEWVASISPYSGSTYYADSVKGRFTISADTSKNTAYLQMNSLRAEDTAVYYCARYYWYYYYGFDYWGQGTLVTVSS VL: DIQMTQSPSSLSASVGDRVTITCRASQSVSSAVAWYQQKPGKAPKLLIYSASSLYSGVPSRFSGSRSGTDFTLTISSLQPEDFATYYCQQYVGYGSPITFGQGTKVEIK    no binding
Fab8 (Fab, V domains shown, also called Ab8 (IgG form with the same VH and VL)) VH: EVQLVESGGGLVQPGGSLRLSCAASGFNIYYSYMHWVRQAPGKGLEWVASISSSYGYTYYADSVKGRFTISADTSKNTAYLQMNSLRAEDTAVYYCARTVRGSKKPYFSGWAMDYWGQGTLVTVSS VL: DIQMTQSPSSLSASVGDRVTITCRASQSVSSAVAWYQQKPGKAPKLLIYSASSLYSGVPSRFSGSRSGTDFTLTISSLQPEDFATYYCQQASYLITFGQGTKVEIK    no binding
Fab5 (Fab, V domains shown, also called Ab5 (IgG form with the same VH and VL)) VH: EVQLVESGGGLVQPGGSLRLSCAASGFNLYSSYMHWVRQAPGKGLEWVASIYSSYSSTYYADSVKGRFTISADTSKNTAYLQMNSLRAEDTAVYYCARTVRGSKKPYFSGWAMDYWGQGTLVTVSS VL: DIQMTQSPSSLSASVGDRVTITCRASQSVSSAVAWYQQKPGKAPKLLIYSASSLYSGVPSRFSGSRSGTDFTLTISSLQPEDFATYYCQQGAGLITFGQGTKVEIK    no binding
